# experimental_system: Adenosine receptor A1 (Homo sapiens, UniProt P30542)
# procedure_text: Agonistic effect at human adenosine A1 receptor in CHO cells
observable: EC50

compound | experimental_value
CNC(=O)C12C[C@@H]1[C@@H](n1cnc3c(NC4CCCC4)nc(Cl)nc31)[C@H](O)[C@@H]2O (single isomer, unassigned) | 8.2 nM

---

# experimental_system: Adenosine receptor A1 (Rattus norvegicus)
# Sequence (P25099 whole entry): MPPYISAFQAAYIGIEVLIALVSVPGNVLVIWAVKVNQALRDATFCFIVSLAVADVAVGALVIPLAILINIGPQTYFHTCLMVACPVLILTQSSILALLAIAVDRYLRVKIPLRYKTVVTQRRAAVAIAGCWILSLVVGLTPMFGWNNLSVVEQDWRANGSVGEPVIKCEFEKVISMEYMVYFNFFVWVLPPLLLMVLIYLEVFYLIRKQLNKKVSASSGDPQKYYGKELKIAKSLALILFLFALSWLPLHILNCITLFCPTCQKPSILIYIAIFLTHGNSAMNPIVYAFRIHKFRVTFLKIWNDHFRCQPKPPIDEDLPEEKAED
# procedure_text: Binding affinity to rat adenosine A1 receptor in CHO cells
pKi: −log10 of the molar value.

compound | pKi
CNC(=O)C12C[C@@H]1[C@@H](n1cnc3c(NC4CCCC4)nc(Cl)nc31)[C@H](O)[C@@H]2O (single isomer, unassigned) | 7.76

---

# experimental_system: Adenosine receptor A3 (Homo sapiens, UniProt P0DMS8)
# Sequence (P0DMS8 whole entry): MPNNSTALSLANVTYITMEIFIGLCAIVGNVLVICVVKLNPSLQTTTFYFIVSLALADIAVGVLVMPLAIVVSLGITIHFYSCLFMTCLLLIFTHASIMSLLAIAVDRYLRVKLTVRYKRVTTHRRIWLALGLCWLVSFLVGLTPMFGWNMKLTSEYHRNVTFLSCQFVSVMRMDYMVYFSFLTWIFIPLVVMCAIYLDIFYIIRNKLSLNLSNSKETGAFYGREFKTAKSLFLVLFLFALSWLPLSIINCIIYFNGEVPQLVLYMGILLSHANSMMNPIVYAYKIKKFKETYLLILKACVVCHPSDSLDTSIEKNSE
# procedure_text: Binding affinity to human adenosine A3 receptor in CHO cells
Decide using Ki alone. Strictly below 10 nM: t. Equal to or above 10 nM: f.

molecule | discrete_label
CNC(=O)C12C[C@@H]1[C@@H](n1cnc3c(NC4CCCC4)ncnc31)[C@H](O)[C@@H]2O (single isomer, unassigned) | f
CNC(=O)C12C[C@@H]1[C@@H](n1cnc3c(NC4CCCC4)nc(Cl)nc31)[C@H](O)[C@@H]2O (single isomer, unassigned) | t
OC[C@H]1O[C@@H](n2cnc3c(NC4C5CCC4CC5)ncnc32)[C@H](O)[C@@H]1O (stereo not given in full) | f
OC[C@H]1O[C@@H](n2cnc3c(NC4CCCC4)ncnc32)[C@H](O)[C@@H]1O [N6-CYCLOPENTYLADENOSINE] | f
CNC(=O)C12C[C@@H]1[C@@H](n1cnc3c(NC4C5CCC4CC5)nc(Cl)nc31)[C@H](O)[C@@H]2O (single isomer, unassigned) | f

---

# experimental_system: Adenosine receptor A3 (Homo sapiens, UniProt P0DMS8)
# procedure_text: Agonistic effect at human adenosine A3 receptor in CHO cells

compound | experimental_system | EC50 (nM)
CNC(=O)C12C[C@@H]1[C@@H](n1cnc3c(NC4CCCC4)nc(Cl)nc31)[C@H](O)[C@@H]2O (single isomer, unassigned) | Adenosine receptor A3 (Homo sapiens, UniProt P0DMS8) | 2.8

---

# experimental_system: Adenosine receptor A1 (Homo sapiens, UniProt P30542)
# Sequence (P30542 whole entry): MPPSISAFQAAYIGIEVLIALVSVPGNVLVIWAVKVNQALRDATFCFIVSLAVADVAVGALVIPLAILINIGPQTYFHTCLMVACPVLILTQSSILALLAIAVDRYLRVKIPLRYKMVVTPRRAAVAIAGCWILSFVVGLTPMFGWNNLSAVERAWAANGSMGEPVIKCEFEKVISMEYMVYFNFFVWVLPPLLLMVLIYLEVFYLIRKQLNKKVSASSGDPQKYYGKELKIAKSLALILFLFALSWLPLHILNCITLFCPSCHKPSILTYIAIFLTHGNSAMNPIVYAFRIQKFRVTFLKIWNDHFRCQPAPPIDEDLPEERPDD
# procedure_text: Displacement of [3H]R-PIA or [3H]CGS 21680 from human adenosine A1 receptor in CHO cells
pKi: −log10 of the molar value.
observable: pKi

molecule | observable | experimental_value
CNC(=O)C12C[C@@H]1[C@@H](n1cnc3c(NC4C5CCC4CC5)nc(Cl)nc31)[C@H](O)[C@@H]2O (single isomer, unassigned) | pKi | 6.72
CNC(=O)C12C[C@@H]1[C@@H](n1cnc3c(NC4CCCC4)nc(Cl)nc31)[C@H](O)[C@@H]2O (single isomer, unassigned) | pKi | 7.74
